Sourced from patent US11814367B2

Assignment: determine reported IC50 for the given molecules.
# TGT: hGYS1 enzyme (recombinant hGYS1/GN1 protein) (Homo sapiens (Human), UniProt P13807)
# Sequence (P13807 whole entry): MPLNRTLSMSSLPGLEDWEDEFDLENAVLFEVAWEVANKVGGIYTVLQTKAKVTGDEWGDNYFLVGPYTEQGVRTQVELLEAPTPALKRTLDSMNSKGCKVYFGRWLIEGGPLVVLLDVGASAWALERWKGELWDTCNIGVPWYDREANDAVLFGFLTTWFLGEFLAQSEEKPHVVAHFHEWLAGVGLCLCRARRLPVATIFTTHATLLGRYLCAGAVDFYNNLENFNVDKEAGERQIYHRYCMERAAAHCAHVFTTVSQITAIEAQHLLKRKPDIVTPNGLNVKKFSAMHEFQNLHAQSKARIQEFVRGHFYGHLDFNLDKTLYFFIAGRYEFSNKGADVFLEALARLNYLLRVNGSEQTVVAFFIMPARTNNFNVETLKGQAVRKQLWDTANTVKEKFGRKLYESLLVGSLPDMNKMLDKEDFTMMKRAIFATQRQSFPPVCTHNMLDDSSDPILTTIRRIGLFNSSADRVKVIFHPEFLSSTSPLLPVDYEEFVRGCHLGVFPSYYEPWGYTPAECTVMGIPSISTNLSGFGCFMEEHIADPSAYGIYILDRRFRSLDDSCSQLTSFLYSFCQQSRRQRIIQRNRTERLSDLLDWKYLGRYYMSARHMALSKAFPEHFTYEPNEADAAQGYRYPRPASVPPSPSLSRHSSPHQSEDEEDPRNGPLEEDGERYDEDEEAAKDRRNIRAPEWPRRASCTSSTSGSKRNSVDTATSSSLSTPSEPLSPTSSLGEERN
# Sequence (P46976 whole entry partner): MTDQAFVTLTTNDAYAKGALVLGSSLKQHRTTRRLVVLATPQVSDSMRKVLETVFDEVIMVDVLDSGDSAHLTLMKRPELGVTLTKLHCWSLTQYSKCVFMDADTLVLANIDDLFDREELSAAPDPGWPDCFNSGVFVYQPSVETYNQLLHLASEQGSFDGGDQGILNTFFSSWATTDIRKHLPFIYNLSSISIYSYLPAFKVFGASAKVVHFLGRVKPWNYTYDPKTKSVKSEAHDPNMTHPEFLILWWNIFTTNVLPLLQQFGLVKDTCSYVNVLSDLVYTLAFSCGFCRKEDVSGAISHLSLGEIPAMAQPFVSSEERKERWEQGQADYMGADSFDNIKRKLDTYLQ
# METHOD DESCRIPTION: GYS1 coupled enzyme assay (PK/LDH)
# TEST CONTEXT: hGYS1/GN1 50 nM, UDP-Glucose 0.8 mM, G6P 1 mM; geometric mean of at least 2 runs
Answers are plain numbers, in nM.

Before answering, review these 2 worked examples.
[
  {
    "SUBSTANCE SMILES": "Cc1ccc2c(CC(=O)N3C[C@H](F)C[C@H]3C(=O)N[C@@H](c3ccccc3)c3ccc(C(C)C)cn3)cccc2n1",
    "TGT": "hGYS1 enzyme (recombinant hGYS1/GN1 protein) (Homo sapiens (Human), UniProt P13807)",
    "MEASURED NUMBER": 7
  },
  {
    "SUBSTANCE SMILES": "CC1(c2ccc([C@@H](NC(=O)[C@@H]3C[C@@H](F)CN3C(=O)CN3C(=O)Cc4ccccc43)c3ccccc3)cc2F)CC1",
    "TGT": "hGYS1 enzyme (recombinant hGYS1/GN1 protein) (Homo sapiens (Human), UniProt P13807)",
    "MEASURED NUMBER": 85
  }
]

I'm hoping you can list IC50 for every molecule here, please.
1. CCn1nccc1C(=O)N1C[C@H](F)C[C@H]1C(=O)N[C@@H](c1ccccc1)c1ccc(C(C)C)cc1
2. CC(C)c1ccc([C@@H](NC(=O)[C@@H]2C[C@@H](F)CN2C(=O)CN2C(=O)CNC2=O)c2ccccc2)cc1

Reply:
1: 789; 2: 49

====

Assignment: determine reported pIC50 for the given compounds.
# TGT: hGYS1 enzyme (recombinant hGYS1/GN1 protein) (Homo sapiens (Human))
# METHOD DESCRIPTION: GYS1 coupled enzyme assay (PK/LDH)
# TEST CONTEXT: hGYS1/GN1 50 nM, UDP-Glucose 0.8 mM, G6P 1 mM; geometric mean of at least 2 runs
Answers are plain numbers, as −log10 of the molar value.

Before answering, review these 10 worked examples.
[
  {
    "COMPOUND": "CC(C)c1ccc([C@@H](NC(=O)[C@@H]2C[C@@H](F)CN2C(=O)Cc2cnn[nH]2)c2cccnc2N)cc1F [Compound 613]",
    "TGT": "hGYS1 enzyme (recombinant hGYS1/GN1 protein) (Homo sapiens (Human))",
    "QUANTITY MEASURED": "pIC50",
    "MEASURED NUMBER": 6.89
  },
  {
    "COMPOUND": "CCn1cc(CC(=O)N2C[C@H](F)C[C@H]2C(=O)N[C@@H](c2ccccc2)c2ccc(C(C)C)c(F)n2)ncc1=O [Compound 797]",
    "TGT": "hGYS1 enzyme (recombinant hGYS1/GN1 protein) (Homo sapiens (Human))",
    "QUANTITY MEASURED": "pIC50",
    "MEASURED NUMBER": 7.80
  },
  {
    "COMPOUND": "Cn1ncc(C(F)F)c1CC(=O)N1C[C@H](F)C[C@H]1C(=O)N[C@@H](c1ccccc1)c1ccc(C2CC2)c(F)n1 [Compound 754]",
    "TGT": "hGYS1 enzyme (recombinant hGYS1/GN1 protein) (Homo sapiens (Human))",
    "QUANTITY MEASURED": "pIC50",
    "MEASURED NUMBER": 7.57
  },
  {
    "COMPOUND": "CC(=O)N1C[C@H](F)C[C@H]1C(=O)NC(c1cccc(-c2nnco2)c1)c1ccc(C(C)C)c(F)n1 (single isomer, unassigned) [Compound 700]",
    "TGT": "hGYS1 enzyme (recombinant hGYS1/GN1 protein) (Homo sapiens (Human))",
    "QUANTITY MEASURED": "pIC50",
    "MEASURED NUMBER": 6.49
  },
  {
    "COMPOUND": "O=C(N[C@@H](c1ccccc1)c1ccc(C2CC2)c(F)n1)[C@@H]1C[C@@H](F)CN1C(=O)Cn1ncc(N2CCC2)n1 [Compound 317]",
    "TGT": "hGYS1 enzyme (recombinant hGYS1/GN1 protein) (Homo sapiens (Human))",
    "QUANTITY MEASURED": "pIC50",
    "MEASURED NUMBER": 7.77
  },
  {
    "COMPOUND": "CC(=O)N[C@@H](CC(N)=O)C(=O)N1C[C@H](F)C[C@H]1C(=O)N[C@@H](c1ccccc1)c1ccc(C(C)C)cc1 [Compound 208]",
    "TGT": "hGYS1 enzyme (recombinant hGYS1/GN1 protein) (Homo sapiens (Human))",
    "QUANTITY MEASURED": "pIC50",
    "MEASURED NUMBER": 6.95
  },
  {
    "COMPOUND": "CC(C)c1ccc([C@H](NC(=O)[C@@H]2C[C@@H](F)CN2C(=O)Cc2nnn[nH]2)c2ccccc2)cc1F [Compound 329]",
    "TGT": "hGYS1 enzyme (recombinant hGYS1/GN1 protein) (Homo sapiens (Human))",
    "QUANTITY MEASURED": "pIC50",
    "MEASURED NUMBER": 6.47
  },
  {
    "COMPOUND": "Cc1nnn(CC(=O)N2C[C@H](F)C[C@H]2C(=O)NC(c2ccccc2)c2cc(C)c(C3CC3)c(F)c2)n1 (single isomer, unassigned) [Compound 682]",
    "TGT": "hGYS1 enzyme (recombinant hGYS1/GN1 protein) (Homo sapiens (Human))",
    "QUANTITY MEASURED": "pIC50",
    "MEASURED NUMBER": 6.94
  },
  {
    "COMPOUND": "CC(C(=O)N1C[C@H](F)C[C@H]1C(=O)N[C@@H](c1ccccc1)c1ccc(C2(C)CC2)c(F)c1)n1cnc2ccccc21 (single isomer, unassigned) [Compound 574]",
    "TGT": "hGYS1 enzyme (recombinant hGYS1/GN1 protein) (Homo sapiens (Human))",
    "QUANTITY MEASURED": "pIC50",
    "MEASURED NUMBER": 7.66
  },
  {
    "COMPOUND": "O=C(NC(c1ccccc1)c1ccc(C2CCC2)c(F)c1)[C@@H]1C[C@@H](F)CN1C(=O)Cc1cnn[nH]1 (single isomer, unassigned) [Compound 674]",
    "TGT": "hGYS1 enzyme (recombinant hGYS1/GN1 protein) (Homo sapiens (Human))",
    "QUANTITY MEASURED": "pIC50",
    "MEASURED NUMBER": 7.02
  }
]

I'm hoping you can list pIC50 for every compound here, please.
1. CC(=O)N1C[C@H](F)C[C@H]1C(=O)NC(c1ccccc1)c1ccc(C2CCC2)cn1 (single isomer, unassigned) [Compound 603]
2. CC(C)c1ccc([C@@H](NC(=O)[C@@H]2C[C@@H](F)CN2C(=O)C(=O)Nc2cccnc2)c2ccccc2)cc1 [Compound 708]

Reply:
[6.22, 5.60]

====

Assignment: determine reported IC50 for the given compounds.
# TGT: hGYS2 enzyme (recombinant hGYS2/GN1 protein) (Homo sapiens (Human), UniProt P54840)
# Sequence (P54840 whole entry): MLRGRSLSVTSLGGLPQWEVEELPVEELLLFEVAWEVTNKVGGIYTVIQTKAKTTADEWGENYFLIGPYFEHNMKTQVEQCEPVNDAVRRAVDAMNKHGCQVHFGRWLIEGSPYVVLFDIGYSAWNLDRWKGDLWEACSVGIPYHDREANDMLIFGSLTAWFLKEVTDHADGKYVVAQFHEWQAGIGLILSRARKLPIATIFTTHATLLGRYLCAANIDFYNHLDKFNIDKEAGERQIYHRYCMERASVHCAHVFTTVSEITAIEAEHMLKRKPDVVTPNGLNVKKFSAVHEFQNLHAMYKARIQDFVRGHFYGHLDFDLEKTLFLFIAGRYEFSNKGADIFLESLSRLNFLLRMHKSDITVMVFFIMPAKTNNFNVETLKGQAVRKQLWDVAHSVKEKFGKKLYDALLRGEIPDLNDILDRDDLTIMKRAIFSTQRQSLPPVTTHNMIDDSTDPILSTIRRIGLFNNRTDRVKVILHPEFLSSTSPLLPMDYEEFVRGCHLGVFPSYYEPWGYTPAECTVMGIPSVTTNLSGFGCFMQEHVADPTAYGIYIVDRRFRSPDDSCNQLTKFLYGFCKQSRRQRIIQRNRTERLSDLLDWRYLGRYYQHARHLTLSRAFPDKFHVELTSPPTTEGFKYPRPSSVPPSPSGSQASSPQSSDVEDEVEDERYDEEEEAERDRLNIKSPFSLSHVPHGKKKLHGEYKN
# Sequence (P46976 whole entry partner): as the sequence (P46976 whole entry partner) above
# METHOD DESCRIPTION: GYS2 coupled enzyme assay (PK/LDH)
# TEST CONTEXT: geometric mean of at least 2 assay runs on separate days, read-out: Avg_IC50

Before answering, review these 5 worked examples.
[
  {
    "COMPOUND": "CC1(c2ccc([C@@H](NC(=O)[C@@H]3C[C@@H](F)CN3C(=O)CN3CCN(C(=O)OCC(F)(F)F)CC3=O)c3ccccc3)cc2F)CC1",
    "TGT": "hGYS2 enzyme (recombinant hGYS2/GN1 protein) (Homo sapiens (Human), UniProt P54840)",
    "IC50": "79.3 µM"
  },
  {
    "COMPOUND": "O=C(N[C@@H](c1ccccc1)c1ccc(C2CC(F)(F)C2)cn1)[C@@H]1C[C@@H](F)CN1C(=O)CNC(=O)N1CCC1",
    "TGT": "hGYS2 enzyme (recombinant hGYS2/GN1 protein) (Homo sapiens (Human), UniProt P54840)",
    "IC50": "> 100 µM"
  },
  {
    "COMPOUND": "CC(C)c1ccc([C@@H](NC(=O)[C@@H]2C[C@@H](F)CN2C(=O)CNC(N)=O)c2ccccc2)nc1F",
    "TGT": "hGYS2 enzyme (recombinant hGYS2/GN1 protein) (Homo sapiens (Human), UniProt P54840)",
    "IC50": "> 100 µM"
  },
  {
    "COMPOUND": "Cc1nccc(NCC(=O)N2C[C@H](F)C[C@H]2C(=O)N[C@@H](c2ccccc2)c2ccc(C(C)C)cn2)n1",
    "TGT": "hGYS2 enzyme (recombinant hGYS2/GN1 protein) (Homo sapiens (Human), UniProt P54840)",
    "IC50": "> 100 µM"
  },
  {
    "COMPOUND": "CC(C)c1c(F)cc(C(NC(=O)[C@@H]2C[C@@H](F)CN2C(=O)Cc2ncco2)c2ccccc2)cc1F (single isomer, unassigned)",
    "TGT": "hGYS2 enzyme (recombinant hGYS2/GN1 protein) (Homo sapiens (Human), UniProt P54840)",
    "IC50": "> 100 µM"
  }
]

Task item: What measured IC50 is associated with O=C(N[C@@H](c1ccccc1)c1ccc(C2CC2)c(F)c1)[C@@H]1C[C@@H](F)CN1C(=O)Cc1nnc(C(F)F)o1 on hGYS2 enzyme (recombinant hGYS2/GN1 protein) (Homo sapiens (Human), UniProt P54840)?
Reply: > 100 µM
